Measurement record for aldose reductase (Rattus norvegicus); quantity recorded: pIC50.
pIC50: −log10 of the molar value.
recorded-metric: pIC50

O=C(Cn1nnnc1-c1ccsc1)OCCO [Example 1]: 6.44

(I) O=C(Cn1nnnc1-c1ccoc1)OCCO [Example 12]
(II) O=C(Cn1nnnc1-c1ccccc1)OCCO [Example 6]
(III) COCCOC(=O)Cn1nnnc1-c1ccsc1 [Example 19]
Q) Output the entries ranked by pIC50 from maximum down to minimum. # the answer lists labels in the order requested
A) III, I, II
(III: 6.68, I: 6.44, II: 5.51)
